The reader will find MIC measurements below, all made with Escherichia coli 2018.
Response body: numeric value in µg/mL, unit text excluded.

molecule smiles: C=CCCN1CCN(c2nc3c([nH]2)c2c(O)c4c(O)c(C)c5c(c43)C(=O)[C@@](C)(O/C=C/[C@H](OC)[C@@H](C)[C@@H](OC(C)=O)[C@H](C)[C@H](O)[C@H](C)[C@@H](O)[C@@H](C)/C=C/C=C(/C)C(=O)N2)O5)CC1
unit of measurement: µg/mL
test result: 1
//
molecule smiles: CO[C@H]1/C=C/O[C@@]2(C)Oc3c(C)c(O)c4c(O)c(c5[nH]c(N6CCC(N7CCCCC7)CC6)nc5c4c3C2=O)NC(=O)/C(C)=C\C=C\[C@H](C)[C@H](O)[C@@H](C)[C@@H](O)[C@@H](C)[C@H](OC(C)=O)[C@@H]1C
unit of measurement: µg/mL
test result: 4
//
molecule smiles: COC(CN(C)c1nc2c([nH]1)c1c(O)c3c(O)c(C)c4c(c32)C(=O)[C@@](C)(O/C=C/[C@H](OC)[C@@H](C)[C@@H](OC(C)=O)[C@H](C)[C@H](O)[C@H](C)[C@@H](O)[C@@H](C)/C=C/C=C(/C)C(=O)N1)O4)OC
unit of measurement: µg/mL
test result: 8

Endpoint output: MIC of CO[C@H]1/C=C/O[C@@]2(C)Oc3c(C)c(O)c4c(O)c(c5nc(N6CCN(CC7CC7)CC6)[nH]c5c4c3C2=O)NC(=O)/C(C)=C\C=C\[C@H](C)[C@H](O)[C@@H](C)[C@@H](O)[C@@H](C)[C@H](OC(C)=O)[C@@H]1C . Value?
8

Entry source: patent EP0049683A2
